# Ki values compiled below
molecular target: LHRH receptors (Rattus norvegicus, UniProt P30969); construct: Pituitary membranes containing LHRH receptors are prepared in batches from quick-frozen rat pituitaries; tissue Hilltop Labs; host or cells: rat pituitary membranes; assay: Receptor Binding (radioligand receptor binding assay); conditions: table 3; rat pituitary membranes, radioiodinated [D-Leu^6 -des Gly^10 ]-LHRH ethyl amide 50 pM, 2 hours at 4° C.; read-out: Receptor Binding pkI (converted)
Sequence (P30969 whole entry): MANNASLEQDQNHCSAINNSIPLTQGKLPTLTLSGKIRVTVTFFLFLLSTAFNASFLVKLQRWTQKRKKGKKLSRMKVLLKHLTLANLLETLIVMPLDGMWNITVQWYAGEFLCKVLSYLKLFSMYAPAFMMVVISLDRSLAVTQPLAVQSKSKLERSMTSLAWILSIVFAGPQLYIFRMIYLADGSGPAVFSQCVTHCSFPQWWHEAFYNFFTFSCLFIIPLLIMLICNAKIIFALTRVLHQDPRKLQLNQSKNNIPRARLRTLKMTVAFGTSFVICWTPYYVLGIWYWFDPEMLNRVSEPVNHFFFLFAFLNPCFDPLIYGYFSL
Numbered stars: 1 amine (or outer) side, 2 acyl side, 3 side chain; on linkers, the order of the positions; unused ones are H or OH. Square brackets hold non-standard residues; d marks the D form. Peptide text beside a SMILES is read from it. * marks the point of attachment. Propanoyl(3-indol-3-yl) = O=C(CCc1c[nH]c2ccccc12)*; d2Nal = N[C@H](Cc1ccc2ccccc2c1)C(=O)O; NMeY = CN[C@@H](Cc1ccc(O)cc1)C(=O)O; NHPhenethyl = c1ccc(CCN*)cc1; Morpholide = C1CN(*)CCO1; CO = O=C([*:1])[*:2]
Just the number in nM, nothing appended.

// known answers, use as guide
CCNC(=O)[C@@H]1CCCN1C(=O)[C@H](CCCNC(=N)N)NC(=O)[C@H](CC(C)C)NC(=O)[C@@H](Cc1c[nH]c2ccccc12)NC(=O)[C@H](Cc1ccc(O)cc1)NC(=O)[C@H](CO)NC(=O)[C@H](Cc1c[nH]c2ccccc12)NC(=O)[C@H](Cc1c[nH]cn1)NC(=O)N1CCOCC1 [Compound 109] ({Morpholide-CO}-HWSY[dW]LRP-NHEt) : 0.316
CC(C)C[C@H](NC(=O)[C@@H](Cc1ccc2ccccc2c1)NC(=O)[C@H](Cc1ccc(O)cc1)NC(=O)[C@H](CO)NC(=O)CCc1c[nH]c2ccccc12)C(=O)N[C@@H](CCCNC(=N)N)C(=O)N1CCC[C@H]1C(=O)N[C@H](C)C(N)=O [Compound 56] ({Propanoyl(3-indol-3-yl)}-SY[d2Nal]LRP[dA]-NH2) : 0.646
CCNC(=O)CC[C@@H](NC(=O)[C@H](Cc1ccc(O)cc1)NC(=O)[C@H](CO)NC(=O)CCc1c[nH]c2ccccc12)C(=O)N[C@@H](CC(C)C)C(=O)N[C@@H](CCCNC(=N)N)C(=O)N1CCC[C@H]1C(=O)NCC [Compound 51] ({Propanoyl(3-indol-3-yl)}-SY[dE](NHEt)LRP-NHEt) : 132
CCNC(=O)[C@@H]1CCCN1C(=O)[C@H](CCCNC(=N)N)NC(=O)[C@H](CC(C)C)NC(=O)[C@@H](Cc1c[nH]c2ccccc12)NC(=O)[C@H](Cc1ccc(O)cc1)NC(=O)[C@H](CO)NC(=O)[C@H](Cc1c[nH]c2ccccc12)NC(=O)[C@@H](Cc1ccccc1)NC(C)=O [Compound 134] (Ac-[dF]WSY[dW]LRP-NHEt) : 0.398
CCNC(=O)[C@@H]1CCCN1C(=O)[C@H](CCCNC(=N)N)NC(=O)[C@H](CC(C)C)NC(=O)[C@@H](Cc1c[nH]c2ccccc12)NC(=O)[C@H](Cc1ccc(O)cc1)NC(=O)[C@H](CO)NC(=O)[C@H](Cc1c[nH]c2ccccc12)NC(=O)[C@H](Cc1ccccc1)NC(=O)NCCc1ccccc1 [Compound 124] ({NHPhenethyl-CO}-FWSY[dW]LRP-NHEt) : 0.347

Looking up CCNC(=O)[C@@H]1CCCN1C(=O)[C@H](CCCNC(=N)N)NC(=O)[C@H](CC(C)C)NC(=O)[C@@H](Cc1c[nH]c2ccccc12)NC(=O)[C@H](Cc1ccc(O)cc1)NC(=O)[C@H](CO)NC(=O)[C@H](Cc1ccc(O)cc1)N(C)C(=O)[C@H](Cc1ccccc1)NC(=O)N1CCOCC1 [Compound 116] ({Morpholide-CO}-F[NMeY]SY[dW]LRP-NHEt) , I see its Ki listed as 5.01
